Recorded IC50 for the following compounds
Biological target: Large T antigen (Simian virus 40, UniProt P03070);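 also: Confirmatory-stage PubChem screen for compounds that inhibit SV40 T antigen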
Sequence (P03070 whole entry): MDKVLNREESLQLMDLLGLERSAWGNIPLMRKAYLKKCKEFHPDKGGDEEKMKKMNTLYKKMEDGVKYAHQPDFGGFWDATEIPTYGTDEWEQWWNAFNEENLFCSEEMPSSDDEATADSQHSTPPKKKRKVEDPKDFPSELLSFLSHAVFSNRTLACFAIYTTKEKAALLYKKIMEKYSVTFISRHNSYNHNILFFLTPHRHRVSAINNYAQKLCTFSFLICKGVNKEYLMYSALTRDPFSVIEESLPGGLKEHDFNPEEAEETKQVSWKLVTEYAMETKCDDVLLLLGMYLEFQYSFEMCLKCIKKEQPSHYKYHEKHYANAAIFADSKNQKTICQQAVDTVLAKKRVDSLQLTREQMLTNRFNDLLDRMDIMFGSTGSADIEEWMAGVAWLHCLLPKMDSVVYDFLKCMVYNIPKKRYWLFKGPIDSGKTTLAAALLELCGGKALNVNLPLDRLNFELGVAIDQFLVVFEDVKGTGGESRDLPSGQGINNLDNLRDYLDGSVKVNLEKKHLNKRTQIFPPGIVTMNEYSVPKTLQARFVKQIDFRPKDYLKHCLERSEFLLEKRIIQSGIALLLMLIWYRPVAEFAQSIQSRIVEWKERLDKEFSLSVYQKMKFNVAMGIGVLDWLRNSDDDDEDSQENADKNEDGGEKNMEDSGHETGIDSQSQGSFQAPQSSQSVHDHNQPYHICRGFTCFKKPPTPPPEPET
Assay type: functional, Betapolyomavirus macacae
Calls of active or inactive are those of the source.

A selection of reference data follows.
INSERT INTO measurements (compound, meas_value) VALUES
  ('O=C(COc1cccc2cccnc12)N/N=C/c1ccc(O)cc1', '19.5 µM (active)'),
  ('COc1cc(/C=C2\C(=O)NN(c3ccccc3)C2=O)cc([N+](=O)[O-])c1O', '> 100 µM (active)'),
  ('COc1cc(/C=C/C(=O)OCC(=O)Nc2ccc(S(N)(=O)=O)cc2)ccc1O', '20 µM (active)'),
  ('COc1cc(/C=N/N2C(=O)C3C4C=CC(CC4)C3C2=O)ccc1O (stereo not given)', '10.1 µM (active)');

Okay, now this compound:
## Task GET /values?readout=IC50&item= COC(=O)/C=C/C(=O)Nc1ccc(O)c(Cl)c1
## Result 11.7 µM (active)
